Just for reference, paper PMC8036603 is where these values come from.

Assay: Acute toxicity assay in shrimp larvae
Type: in vivo, Litopenaeus vannamei
Settings: Litopenaeus vannamei (shrimp) larvae, in vivo, other: immersion of larvae in test solutions, 72 h exposure, 28 °C, 95% CI in brackets, read-out: LC50 (mg/L; 95% CI) 72 h
Labelling field: enter met if recorded LC50 at 72 h is less than 10 mg/L. Enter not met if it equals or exceeds that cut-off.

# count of solved cases: 4
                                   molecule    class
0  N#CC1=C(N)Oc2c(c(=O)oc3ccccc23)C1c1ccccc1 (stereo not drawn)      met
1  COc1ccc(C2C(C#N)=C(N)Oc3c2c(=O)oc2ccccc32)cc1 (stereo not drawn)  not met
2  COc1ccc(C2NC(=S)Nc3c2c(=O)oc2ccccc32)cc1 (stereo not drawn)  not met
3  O=c1oc2ccccc2c2c1C(c1ccc([N+](=O)[O-])cc1)NC(=S)N2 (stereo not drawn)      met

**Q:** Check if LC50 at 72 h falls below 10 mg/L for O=C1Nc2c(c(=O)oc3ccccc23)C(c2ccc(Br)cc2)N1 (stereo not drawn) .
**A:** met

**Q:** Check if LC50 at 72 h falls below 10 mg/L for O=c1oc2ccccc2c2c1C(c1ccccc1)NC(=S)N2 (stereo not drawn) .
**A:** not met

**Q:** Check if LC50 at 72 h falls below 10 mg/L for Cc1ccc(C2NC(=S)Nc3c2c(=O)oc2ccccc32)cc1 (stereo not drawn) .
**A:** not met

**Q:** Check if LC50 at 72 h falls below 10 mg/L for O=C1Nc2c(c(=O)oc3ccccc23)C(c2ccc([N+](=O)[O-])cc2)N1 (stereo not drawn) .
**A:** met

---

Assay: Acute toxicity assay in shrimp larvae
Type: in vivo, Litopenaeus vannamei
Settings: Litopenaeus vannamei (shrimp) larvae, in vivo, other: immersion of larvae in test solutions, 48 h exposure, 28 °C, 95% CI in brackets, read-out: LC50 (mg/L; 95% CI) 48 h
Below, each entry is listed alongside its reported LC50 at 48 h.
The figure you give is taken to be in mg/L; do not add the unit.

Past entries and their recorded results:
                                   compound  readout_type  units_symbol  reported_value
0  O=c1oc2ccccc2c2c1C(c1ccc(Cl)cc1)NC(=S)N2 (centres unmarked) [B6]  LC50 at 48 h          mg/L            6.63
1  O=c1oc2ccccc2c2c1C(c1ccc([N+](=O)[O-])cc1)NC(=S)N2 (centres unmarked) [B8]  LC50 at 48 h          mg/L            7.48
2  N#CC1=C(N)Oc2c(c(=O)oc3ccccc23)C1c1ccccc1 (centres unmarked) [C1]  LC50 at 48 h          mg/L            16.6

**Q:** Query (compound): Cc1ccc(C2NC(=S)Nc3c2c(=O)oc2ccccc32)cc1 (centres unmarked) [B2] ; field requested: LC50 at 48 h
**A:** 18.6

**Q:** Query (compound): COc1ccc(C2NC(=S)Nc3c2c(=O)oc2ccccc32)cc1 (centres unmarked) [B3] ; field requested: LC50 at 48 h
**A:** 64.1

**Q:** Query (compound): COc1ccc(C2C(C#N)=C(N)Oc3c2c(=O)oc2ccccc32)cc1 (centres unmarked) [C3] ; field requested: LC50 at 48 h
**A:** 17.3

**Q:** Query (compound): O=C1Nc2c(c(=O)oc3ccccc23)C(c2ccc([N+](=O)[O-])cc2)N1 (centres unmarked) [A8] ; field requested: LC50 at 48 h
**A:** 3.43

**Q:** Query (compound): N#Cc1ccc(C2NC(=S)Nc3c2c(=O)oc2ccccc32)cc1 (centres unmarked) [B9] ; field requested: LC50 at 48 h
**A:** 31.5

**Q:** Query (compound): O=c1oc2ccccc2c2c1C(c1ccc(F)cc1)NC(=S)N2 (centres unmarked) [B5] ; field requested: LC50 at 48 h
**A:** 8.87

**Q:** Query (compound): O=c1oc2ccccc2c2c1C(c1ccccc1)NC(=S)N2 (centres unmarked) [B1] ; field requested: LC50 at 48 h
**A:** 12.8

**Q:** Query (compound): N#Cc1ccc(C2NC(=O)Nc3c2c(=O)oc2ccccc32)cc1 (centres unmarked) [A9] ; field requested: LC50 at 48 h
**A:** 18
